Kindly state kon for each of the entries shown.
Target: T1, hNPR1-mFc:hBNP complex (human, UniProt P16860 103-134)
T1 construct: also called human NPR1 complexed to BNP
Assay: SPR, mAb captured, 25C
Give bare numbers, in M⁻¹ s⁻¹.

mAb22035 (antibody, human IgG4, V domains shown) VH: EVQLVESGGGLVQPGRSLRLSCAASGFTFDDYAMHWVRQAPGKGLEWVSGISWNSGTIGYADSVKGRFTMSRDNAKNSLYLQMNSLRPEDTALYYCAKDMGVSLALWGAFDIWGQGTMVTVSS VL: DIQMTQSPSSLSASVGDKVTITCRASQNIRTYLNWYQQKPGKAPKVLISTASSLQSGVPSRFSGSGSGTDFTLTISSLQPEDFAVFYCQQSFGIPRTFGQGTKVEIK	171000

Give measured kon for every item shown.
1. mAb22033 (antibody, human IgG4, V domains shown) VH: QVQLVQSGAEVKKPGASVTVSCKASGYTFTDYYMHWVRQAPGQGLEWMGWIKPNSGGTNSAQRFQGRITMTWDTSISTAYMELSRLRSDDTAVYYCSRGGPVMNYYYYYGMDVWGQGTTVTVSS VL: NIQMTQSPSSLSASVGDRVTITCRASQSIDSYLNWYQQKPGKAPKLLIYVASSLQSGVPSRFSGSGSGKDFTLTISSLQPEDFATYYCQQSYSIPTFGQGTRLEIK
2. mAb25479 (antibody, human IgG4, V domains shown) VH: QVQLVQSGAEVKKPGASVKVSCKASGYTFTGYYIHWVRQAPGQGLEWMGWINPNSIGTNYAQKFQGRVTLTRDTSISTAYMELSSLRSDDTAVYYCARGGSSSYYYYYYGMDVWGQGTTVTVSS VL: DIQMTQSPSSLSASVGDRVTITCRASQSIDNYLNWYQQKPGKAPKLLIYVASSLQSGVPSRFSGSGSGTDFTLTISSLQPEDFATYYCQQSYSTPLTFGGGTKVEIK

Key:
1: 54300; 2: 29200
